This collection of values is drawn from patent US20260356879A1.

# System: NLRP3 inflammasome
# assayComment: IL-1β secretion in THP-1 macrophages, LPS + Nigericin
# Type: cell-based
# conditionsUsed: human THP-1 macrophages, LPS (100 ng/ml) + Nigericin (10 μM), 0-10 μM; FIG. 5C; read-out: IC50 for inhibition of IL-1β secretion
reportedProperty: IC50 (nM)
API: value field is a number in nM; no unit string.

Lab request: please report IC50 under test system NLRP3 inflammasome for CC(C)(O)c1coc(S(=O)(=O)NC(=O)Nc2c3c(cc4c2CCC4)CCC3)c1 [MCC950, reference compound]
1250

Lab request: please report IC50 under test system NLRP3 inflammasome for CC1=C(O)C(=O)C=C2C1=CC=C1[C@@]2(C)CC[C@@]2(C)[C@@H]3C[C@](C)(N(C)C(=O)C(=O)N(C)C)CC[C@]3(C)CC[C@]12C
159
